# test target: BChE (Rattus norvegicus, UniProt Q9JKC1)
# Sequence (Q9JKC1 24-597): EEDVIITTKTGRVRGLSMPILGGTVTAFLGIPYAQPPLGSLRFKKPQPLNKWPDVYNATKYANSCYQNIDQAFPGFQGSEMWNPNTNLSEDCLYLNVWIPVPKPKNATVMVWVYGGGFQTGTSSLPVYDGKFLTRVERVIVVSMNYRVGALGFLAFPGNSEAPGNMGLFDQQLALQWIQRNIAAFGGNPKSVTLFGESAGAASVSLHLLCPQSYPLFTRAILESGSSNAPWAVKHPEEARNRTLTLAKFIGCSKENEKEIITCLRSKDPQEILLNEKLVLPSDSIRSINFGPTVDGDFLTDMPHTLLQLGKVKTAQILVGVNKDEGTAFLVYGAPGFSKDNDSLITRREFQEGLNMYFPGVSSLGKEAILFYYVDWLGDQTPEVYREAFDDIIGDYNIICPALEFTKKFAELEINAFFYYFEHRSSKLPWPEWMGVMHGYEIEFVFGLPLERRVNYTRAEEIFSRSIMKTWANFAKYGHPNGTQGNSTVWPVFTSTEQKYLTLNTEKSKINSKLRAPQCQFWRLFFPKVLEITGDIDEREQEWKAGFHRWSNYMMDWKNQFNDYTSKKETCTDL
# assay summary: biochemical
# Set-up: species or system Sprague–Dawley rat
measured property: IC50 (µM)
Kindly answer with a numeric value in µM, unit omitted.

The recorded IC50 for entry CCCCCC(=O)Nc1ccccc1OCCN(C)C [Compound 22d] equals 26.6

----------
# test target: AChE (Rattus norvegicus, UniProt P37136)
# Sequence (P37136 32-614): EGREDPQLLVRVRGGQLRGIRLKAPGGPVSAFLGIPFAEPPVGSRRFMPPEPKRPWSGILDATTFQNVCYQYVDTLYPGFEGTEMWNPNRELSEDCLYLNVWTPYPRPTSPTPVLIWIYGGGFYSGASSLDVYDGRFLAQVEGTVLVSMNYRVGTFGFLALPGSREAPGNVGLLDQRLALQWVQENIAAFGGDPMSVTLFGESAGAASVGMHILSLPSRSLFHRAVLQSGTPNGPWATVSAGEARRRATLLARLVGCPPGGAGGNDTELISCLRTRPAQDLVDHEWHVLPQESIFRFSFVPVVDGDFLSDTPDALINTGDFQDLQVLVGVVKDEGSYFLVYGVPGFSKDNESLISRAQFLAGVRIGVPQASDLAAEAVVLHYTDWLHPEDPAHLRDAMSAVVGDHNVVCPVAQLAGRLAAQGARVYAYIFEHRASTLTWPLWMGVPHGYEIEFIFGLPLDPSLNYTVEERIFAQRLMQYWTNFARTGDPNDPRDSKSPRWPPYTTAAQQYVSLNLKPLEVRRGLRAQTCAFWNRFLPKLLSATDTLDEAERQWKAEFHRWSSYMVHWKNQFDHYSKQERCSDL
# assay summary: biochemical
# condition summary: rat brain AChE, Mean ± SD, triplicate
pIC50: −log10 of the molar value.
Assign Criterion met to entries whose pIC50 meets or exceeds 4; assign Criterion not met to the rest.

Would you please look over these solved cases?
>  <compound>
O=C(CCc1ccccc1)Nc1ccccc1OCCN1CCCC1 [Compound 10g]

>  <label>
Criterion not met

$$$$
>  <compound>
O=C(CCc1ccccc1)Nc1ccc(OCCN2CCCC2)cc1 [Compound 12g]

>  <label>
Criterion met

$$$$
>  <compound>
C/C=C/C=C/C(=O)Nc1cccc(OCCN(C)C)c1 [Compound 17d]

>  <label>
Criterion met

$$$$
>  <compound>
C/C=C/C=C/C(=O)Nc1ccccc1OCCN1CCCCC1 [Compound 16f]

>  <label>
Criterion not met

$$$$
>  <compound>
O=C(C=Cc1ccccc1)Nc1ccc(OCCN2CCCC2)cc1 [Compound 6g]

>  <label>
Criterion met

$$$$

Switching to the query record.
Asked: Item CCCCCC(=O)Nc1ccccc1OCCN1CCCC1 [Compound 22g] with pIC50 of 4 or above?
Given back: Criterion not met

----------
# assay summary: pKa by pH-titration method
# Format: physicochemical
# condition summary: read-out: pKa
Assign rule met to entries whose pKa meets or exceeds 7; assign rule not met to the rest.

Would you please look over these solved cases?
>  <compound>
C/C=C/C=C/C(=O)Nc1cccc(OCCN(C)C)c1 [Compound 17d]

>  <label>
rule met

$$$$
>  <compound>
C/C=C/C=C/C(=O)Nc1ccccc1OCCN(CC)CC [Compound 16e]

>  <label>
rule met

$$$$
>  <compound>
C/C=C/C=C/C(=O)Nc1ccccc1OCCN(C)C [Compound 16d]

>  <label>
rule met

$$$$
>  <compound>
C/C=C/C=C/C(=O)Nc1ccc(OCCN2CCCC2)cc1 [Compound 18g]

>  <label>
rule met

$$$$

Asked: Item "CN(C)CCOc1cccc(NC(=O)C=Cc2ccccc2)c1" with pKa of 7 or above?
Given back: rule not met

----------
# test target: AChE (Rattus norvegicus)
measured property: Ki (µM)
Kindly answer with a numeric value in µM, unit omitted.

The compound O=C(C=Cc1ccccc1)Nc1ccc(OCCN2CCCC2)cc1 [Compound 6g] on AChE (Rattus norvegicus): Ki was 7.27

----------
# assay summary: Log P by shake flask method
# Assay type: physicochemical
# condition summary: octanol / PBS pH = 7.4, shake flask
The class of a record is decided solely by its measured logP; consult zone 1 (below 1), zone 2 (1 to below 2), zone 3 (2 or more)

>  <molecule>
CN(C)CCOc1cccc(NC(=O)CCc2ccccc2)c1 [Compound 11d]

>  <label>
zone 2

$$$$

Asked: Kindly identify the class of CCCCCC(=O)Nc1ccccc1OCCN1CCCC1 [Compound 22g] .
Given back: zone 2

Asked: Kindly identify the class of CCCCCC(=O)Nc1cccc(OCCN(CC)CC)c1 [Compound 23e] .
Given back: zone 1

Asked: Kindly identify the class of CCN(CC)CCOc1ccccc1NC(=O)C=Cc1ccccc1 [Compound 4e] .
Given back: zone 3

Asked: Kindly identify the class of O=C(C=Cc1ccccc1)Nc1ccccc1OCCN1CCCCC1 [Compound 4f] .
Given back: zone 3

Asked: Kindly identify the class of O=C(C=Cc1ccccc1)Nc1ccc(OCCN2CCCC2)cc1 [Compound 6g] .
Given back: zone 2

Asked: Kindly identify the class of O=C(C=Cc1ccccc1)Nc1cccc(OCCN2CCCCC2)c1 [Compound 5f] .
Given back: zone 2

Asked: Kindly identify the class of CCN(CC)CCOc1ccc(NC(=O)CCc2ccccc2)cc1 [Compound 12e] .
Given back: zone 3

Asked: Kindly identify the class of CCCCCC(=O)Nc1cccc(OCCN2CCCC2)c1 [Compound 23g] .
Given back: zone 2

Asked: Kindly identify the class of CCN(CC)CCOc1ccccc1NC(=O)CCc1ccccc1 [Compound 10e] .
Given back: zone 3

Asked: Kindly identify the class of CCN(CC)CCOc1cccc(NC(=O)C=Cc2ccccc2)c1 [Compound 5e] .
Given back: zone 3

Asked: Kindly identify the class of CCCCCC(=O)Nc1ccccc1OCCN(CC)CC [Compound 22e] .
Given back: zone 2

Asked: Kindly identify the class of C/C=C/C=C/C(=O)Nc1cccc(OCCN2CCCCC2)c1 [Compound 17f] .
Given back: zone 3

Asked: Kindly identify the class of C/C=C/C=C/C(=O)Nc1ccc(OCCN(CC)CC)cc1 [Compound 18e] .
Given back: zone 2

Asked: Kindly identify the class of CCCCCC(=O)Nc1ccccc1OCCN1CCCCC1 [Compound 22f] .
Given back: zone 2

Asked: Kindly identify the class of CN(C)CCOc1ccc(NC(=O)C=Cc2ccccc2)cc1 [Compound 6d] .
Given back: zone 2

Asked: Kindly identify the class of CN(C)CCOc1ccc(NC(=O)CCc2ccccc2)cc1 [Compound 12d] .
Given back: zone 3

Asked: Kindly identify the class of CCCCCC(=O)Nc1cccc(OCCN(C)C)c1 [Compound 23d] .
Given back: zone 1

Asked: Kindly identify the class of CCCCCC(=O)Nc1ccc(OCCN2CCCC2)cc1 [Compound 24g] .
Given back: zone 1

Asked: Kindly identify the class of CCN(C)C(=O)Oc1cccc([C@H](C)N(C)C)c1 [Rivastigmine, reference compound] .
Given back: zone 2
